Numbers sourced from ChEMBL document CHEMBL1212775.

system: Human immunodeficiency virus 1; assay: Antiviral activity against Human immunodeficiency virus 1 3B virus infected in human MT2 cells assessed as inhibition of virus-induced cytopathic effect by colorimetry; assay type: functional, organism-based
experimental readout: EC50 (µM)
Note: unit µM is implicit; provide only the numeric part.

Lookup: For the compound shown here, `O=C(O)CNC(=O)c1ccc(-c2ccc(-c3c4nc(c(-c5ccc(-c6ccc(C(=O)NCC(=O)O)cc6)cc5)c5ccc([nH]5)c(-c5ccc(-c6ccc(C(=O)NCC(=O)O)cc6)cc5)c5nc(c(-c6ccc(-c7ccc(C(=O)NCC(=O)O)cc7)cc6)c6ccc3[nH]6)C=C5)C=C4)cc2)cc1` , give the reported EC50.
Found: 1.5

Lookup: Would you mind telling me what EC50 value was observed for `COC(=O)[C@H](CC(=O)O)NC(=O)c1cc(C(=O)N[C@@H](CC(=O)O)C(=O)OC)cc(-c2ccc(-c3c4nc(c(-c5ccc(-c6cc(C(=O)N[C@@H](CC(=O)O)C(=O)OC)cc(C(=O)N[C@@H](CC(=O)O)C(=O)OC)c6)cc5)c5ccc([nH]5)c(-c5ccc(-c6cc(C(=O)N[C@@H](CC(=O)O)C(=O)OC)cc(C(=O)N[C@@H](CC(=O)O)C(=O)OC)c6)cc5)c5nc(c(-c6ccc(-c7cc(C(=O)N[C@@H](CC(=O)O)C(=O)OC)cc(C(=O)N[C@@H](CC(=O)O)C(=O)OC)c7)cc6)c6ccc3[nH]6)C=C5)C=C4)cc2)c1` ?
Found: 4.1

====

test system: Hepatitis B virus; assay: Antiviral activity against Hepatitis B virus infected in human 2.2.15 cells assessed as reduction of […] after 72 hrs by southern DNA hybridization method; format: functional, organism-based; conditions: HepG2 2.2.15, 72 h
pEC50: −log10 of the molar value.
experimental readout: pEC50

Sample answers from the record:
O=C(O)c1ccc(-c2c3nc(c(-c4ccc(C(=O)O)cc4)c4ccc([nH]4)c(-c4ccc(C(=O)O)cc4)c4ccc([nH]4)c(-c4ccc(C(=O)O)cc4)c4nc2C=C4)C=C3)cc1: < 5.00
O=C(O)CNC(=O)c1ccc(-c2ccc(-c3c4nc(c(-c5ccc(-c6ccc(C(=O)NCC(=O)O)cc6)cc5)c5ccc([nH]5)c(-c5ccc(-c6ccc(C(=O)NCC(=O)O)cc6)cc5)c5nc(c(-c6ccc(-c7ccc(C(=O)NCC(=O)O)cc7)cc6)c6ccc3[nH]6)C=C5)C=C4)cc2)cc1: < 4.70
O=C(O)c1cccc(-c2ccc(-c3c4nc(c(-c5ccc(-c6cccc(C(=O)O)c6)cc5)c5ccc([nH]5)c(-c5ccc(-c6cccc(C(=O)O)c6)cc5)c5nc(c(-c6ccc(-c7cccc(C(=O)O)c7)cc6)c6ccc3[nH]6)C=C5)C=C4)cc2)c1: < 4.70

Let us examine a further case.
Lookup: Please report the recorded pEC50 for `O=C(O)c1ccc(-c2ccc(-c3c4nc(c(-c5ccc(-c6ccc(C(=O)O)cc6)cc5)c5ccc([nH]5)c(-c5ccc(-c6ccc(C(=O)O)cc6)cc5)c5ccc([nH]5)c(-c5ccc(-c6ccc(C(=O)O)cc6)cc5)c5nc3C=C5)C=C4)cc2)cc1` .
Found: < 5.00

====

Here the recorded CC50 is given for each entry.
experiment: Cytotoxicity against human Huh-7 cells by luminescence based cell viability assay

O=C(O)CNC(=O)c1cc(C(=O)NCC(=O)O)cc(-c2ccc(-c3c4nc(c(-c5ccc(-c6cc(C(=O)NCC(=O)O)cc(C(=O)NCC(=O)O)c6)cc5)c5ccc([nH]5)c(-c5ccc(-c6cc(C(=O)NCC(=O)O)cc(C(=O)NCC(=O)O)c6)cc5)c5nc(c(-c6ccc(-c7cc(C(=O)NCC(=O)O)cc(C(=O)NCC(=O)O)c7)cc6)c6ccc3[nH]6)C=C5)C=C4)cc2)c1: > 50 µM
O=C(O)CNC(=O)c1ccc(-c2c3nc(c(-c4ccc(C(=O)NCC(=O)O)cc4)c4ccc([nH]4)c(-c4ccc(C(=O)NCC(=O)O)cc4)c4nc(c(-c5ccc(C(=O)NCC(=O)O)cc5)c5ccc2[nH]5)C=C4)C=C3)cc1: 27 µM
O=C(O)c1cccc(-c2ccc(-c3c4nc(c(-c5ccc(-c6cccc(C(=O)O)c6)cc5)c5ccc([nH]5)c(-c5ccc(-c6cccc(C(=O)O)c6)cc5)c5nc(c(-c6ccc(-c7cccc(C(=O)O)c7)cc6)c6ccc3[nH]6)C=C5)C=C4)cc2)c1: 42.3 µM
O=C(O)c1ccc(-c2c3nc(c(-c4ccc(C(=O)O)cc4)c4ccc([nH]4)c(-c4ccc(C(=O)O)cc4)c4ccc([nH]4)c(-c4ccc(C(=O)O)cc4)c4nc2C=C4)C=C3)cc1: > 50 µM
O=C(O)c1cc(C(=O)O)cc(-c2c3nc(c(-c4cc(C(=O)O)cc(C(=O)O)c4)c4ccc([nH]4)c(-c4cc(C(=O)O)cc(C(=O)O)c4)c4nc(c(-c5cc(C(=O)O)cc(C(=O)O)c5)c5ccc2[nH]5)C=C4)C=C3)c1: > 50 µM

Lookup: Give its CC50 value. Item: `O=C(O)CNC(=O)c1ccc(-c2ccc(-c3c4nc(c(-c5ccc(-c6ccc(C(=O)NCC(=O)O)cc6)cc5)c5ccc([nH]5)c(-c5ccc(-c6ccc(C(=O)NCC(=O)O)cc6)cc5)c5nc(c(-c6ccc(-c7ccc(C(=O)NCC(=O)O)cc7)cc6)c6ccc3[nH]6)C=C5)C=C4)cc2)cc1`
Found: > 50 µM

Lookup: Could you share which CC50 value was measured for `O=C(O)c1ccc(-c2ccc(-c3c4nc(c(-c5ccc(-c6ccc(C(=O)O)cc6)cc5)c5ccc([nH]5)c(-c5ccc(-c6ccc(C(=O)O)cc6)cc5)c5ccc([nH]5)c(-c5ccc(-c6ccc(C(=O)O)cc6)cc5)c5nc3C=C5)C=C4)cc2)cc1` ?
Found: 18.6 µM

Lookup: // returns reported CC50 for input `O=C(O)c1cc(C(=O)O)cc(-c2ccc(-c3c4nc(c(-c5ccc(-c6cc(C(=O)O)cc(C(=O)O)c6)cc5)c5ccc([nH]5)c(-c5ccc(-c6cc(C(=O)O)cc(C(=O)O)c6)cc5)c5ccc([nH]5)c(-c5ccc(-c6cc(C(=O)O)cc(C(=O)O)c6)cc5)c5nc3C=C5)C=C4)cc2)c1`
Found: > 50 µM
